molecular target: human MC3R (human, UniProt P41968 1-323); assay: cell-based or functional assay
Sequence (P41968 whole entry): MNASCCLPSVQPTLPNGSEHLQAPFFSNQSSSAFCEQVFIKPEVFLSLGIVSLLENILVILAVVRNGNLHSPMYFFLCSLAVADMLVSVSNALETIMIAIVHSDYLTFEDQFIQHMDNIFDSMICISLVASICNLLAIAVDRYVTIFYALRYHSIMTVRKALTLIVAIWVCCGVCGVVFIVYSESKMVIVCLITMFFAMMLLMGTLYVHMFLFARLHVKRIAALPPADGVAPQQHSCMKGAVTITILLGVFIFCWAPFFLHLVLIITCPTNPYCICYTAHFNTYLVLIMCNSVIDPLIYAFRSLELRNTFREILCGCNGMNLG
Non-standard residues stand in square brackets, D forms with d. PKcap2 = N-terminal cap Aryl(4-I)-Gly-mPEG2; Phe(4-Cl) = N[C@@H](Cc1ccc(Cl)cc1)C(=O)O; Nle = CCCC[C@H](N)C(=O)O

[
  {
    "BINDER": "PKcap2-GV[Nle][dA]HFR[dW]DRFG-OH [CTX-1150]",
    "MC3R selectivity (relative to MC4R)": 577
  },
  {
    "BINDER": "H-YVEGHFR[dW]DRFG-NH2 (SMILES CC(C)[C@H](NC(=O)[C@@H](N)Cc1ccc(O)cc1)C(=O)N[C@@H](CCC(=O)O)C(=O)NCC(=O)N[C@@H](Cc1c[nH]cn1)C(=O)N[C@@H](Cc1ccccc1)C(=O)N[C@@H](CCCNC(=N)N)C(=O)N[C@H](Cc1c[nH]c2ccccc12)C(=O)N[C@@H](CC(=O)O)C(=O)N[C@@H](CCCNC(=N)N)C(=O)N[C@@H](Cc1ccccc1)C(=O)NCC(N)=O) [CTX-1105]",
    "MC3R selectivity (relative to MC4R)": 500
  },
  {
    "BINDER": "Ac-[Nle][dA]H[Phe(4-Cl)]R[dW]DRFG-OH (SMILES CCCC[C@H](NC(C)=O)C(=O)N[C@H](C)C(=O)N[C@@H](Cc1c[nH]cn1)C(=O)N[C@@H](Cc1ccc(Cl)cc1)C(=O)N[C@@H](CCCNC(=N)N)C(=O)N[C@H](Cc1c[nH]c2ccccc12)C(=O)N[C@@H](CC(=O)O)C(=O)N[C@@H](CCCNC(=N)N)C(=O)N[C@@H](Cc1ccccc1)C(=O)NCC(=O)O) [CTX-1166]",
    "MC3R selectivity (relative to MC4R)": 3100
  },
  {
    "BINDER": "YVXAHFRWDRFG (Nle at 3; D-Ala at 4; Phe(4-Cl) at 6; D-Trp at 8) [CTX-2121]",
    "MC3R selectivity (relative to MC4R)": 93
  },
  {
    "BINDER": "Ac-TGHFR[dW]D-NH2 (SMILES CC(=O)N[C@H](C(=O)NCC(=O)N[C@@H](Cc1c[nH]cn1)C(=O)N[C@@H](Cc1ccccc1)C(=O)N[C@@H](CCCNC(=N)N)C(=O)N[C@H](Cc1c[nH]c2ccccc12)C(=O)N[C@@H](CC(=O)O)C(N)=O)[C@@H](C)O) [CTX-1112]",
    "MC3R selectivity (relative to MC4R)": 8.6
  },
  {
    "BINDER": "Ac-[Nle][dV]HFR[dW]DRFG-OH (SMILES CCCC[C@H](NC(C)=O)C(=O)N[C@@H](C(=O)N[C@@H](Cc1c[nH]cn1)C(=O)N[C@@H](Cc1ccccc1)C(=O)N[C@@H](CCCNC(=N)N)C(=O)N[C@H](Cc1c[nH]c2ccccc12)C(=O)N[C@@H](CC(=O)O)C(=O)N[C@@H](CCCNC(=N)N)C(=O)N[C@@H](Cc1ccccc1)C(=O)NCC(=O)O)C(C)C) [CTX-1181]",
    "MC3R selectivity (relative to MC4R)": 718
  }
]
